Examples of compounds with documented EC50 follow.
Biological target: GPR40 of human origin (Homo sapiens, UniProt O14842)
Sequence (O14842 whole entry): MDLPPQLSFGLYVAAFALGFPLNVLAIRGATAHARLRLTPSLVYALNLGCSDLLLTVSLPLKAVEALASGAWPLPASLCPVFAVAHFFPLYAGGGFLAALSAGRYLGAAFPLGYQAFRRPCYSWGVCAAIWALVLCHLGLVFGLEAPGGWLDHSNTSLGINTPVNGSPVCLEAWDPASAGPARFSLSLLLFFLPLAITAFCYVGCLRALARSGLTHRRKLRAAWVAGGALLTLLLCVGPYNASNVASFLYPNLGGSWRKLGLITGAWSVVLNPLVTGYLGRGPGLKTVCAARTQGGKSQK
Experiment: Agonist action on GPR40 of human origin (Ca2+ fluorescence in CHO cells)
Details: CHO cell strain stably expressing GPR40 of human origin; Ca2+ concentration fluctuation, fluorescent calcium indicator
Experimental: A CHO cell strain stably expressing GPR40 of human origin was used to determine the agonist action of a subject compound. This cell strain was seeded in a clear bottom 96 well plate at 4×10^4 cells/100 μL/well. […] The subject compound was diluted with a 20 mM HEPES-containing HBSS and was added to the cells by 50 μL, and the fluctuation of the Ca^2+ concentration was measured by an intracellular ion analyzer. […]

# example entries with known answers
Cc1cc(OCCC(C)(C)O)cc(C)c1-c1cccc(COc2ccc(-c3cc(O)n[s+]3[O-])cc2)c1C (stereo not drawn) [Example 31] :: < 300 nM
CCOCCOc1cc(C)c(-c2cccc3c2CC[C@H]3Oc2ccc(-c3cc(O)n[s+]3[O-])cc2)c(C)c1 (single isomer, unassigned) [Example 139] :: < 300 nM

In plain terms, Cc1cc(OCCO)cc(C)c1-c1cccc(COc2ccc(-c3cc(O)n[s+]3[O-])cc2)c1C (stereo not drawn) [Example 51] has a documented EC50 of < 300 nM

So for CC(=O)NCCCOc1ccc(-c2cccc(COc3ccc(-c4cc(O)n[s+]4[O-])cc3)c2C)c(C)n1 (stereo not drawn) [Example 71] , the logged EC50 turned out to be 300 to 3000 nM
